# Lookup of reported composite z-score keyed by entry
# EXPERIMENT_DESCRIPTION: small-molecule microarray binders of probe aNog, primary screen, biochemical, biotinylated probe, 635/667 nm fluorescence (AID 1115);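 also: probe is biotinylated aNog protein used at 0.15 µg/mL for 1 h at 4 C; z-score combines 667 nm fluorescence of each spot with its signal to noise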
# TEST_PARAMETERS: higher = more signal
I'd appreciate a reply containing only the number, no unit.

Recorded results for 5 compounds are shown here.
Query string: What does the data say about its composite z-score? Entry: CC(=O)OC[C@H]1O[C@H](CCON=C(C)CCN2CCCc3nc(C)c(C)cc32)C=C[C@@H]1OC(C)=O
Result string: 0.189

Query string: Also CC1(C)O[C@H]2OC([C@H](O)CON3C(=O)c4ccccc4C3=O)[C@H](O)[C@H]2O1 (stereo partly drawn) , if possible.
Result string: -0.218

Query string: Field entry: C[C@@H](c1ccccc1)N1C(=O)[C@H]2[C@H]3[C@H](O)[C@H](O)CC(=NOC[C@@H](O)COCc4ccco4)[C@H]3CC[C@H]2C1=O
Result string: -0.285

Query string: Try COc1ccc(-c2cnnc(CCCn3ccnc3-c3ccccc3)n2)cc1 next.
Result string: -0.395

Query string: Let us now turn to CO[C@@H]1COC(=O)[C@H](COCc2ccccc2)NC(=O)CC=C[C@@H](C)[C@H](OC)COC(=O)[C@@H](C)NC(=O)CC=C[C@H]1C
Result string: -0.643

Others:
Query string: // lookup composite z-score for O=C1C2=CC[C@H]3C(=O)N(C[C@@H]4CCCO4)C(=O)[C@H]3[C@H]2[C@H](O)[C@@H]2O[C@H]12
Result string: -0.158

Query string: Another compound to look at: CON(C)C(=O)c1nnc2c(n1)[nH]c1ccccc12
Result string: -0.33

Query string: Then what about the compound CO[C@@H]1COC(=O)CC=C[C@H](C)[C@H](OC)COC(=O)[C@@H]2CCCN2C(=O)CC=C[C@H]1C ?
Result string: -0.195

---

# EXPERIMENT_DESCRIPTION: basal MM1S mitochondrial membrane potential changes, profiling panel, cell-based, JC-1 fluorescence, 24 h, 100 nL compound (AID 1170); also: test concentration not given here
# TEST_PARAMETERS: higher = more signal
Known z-score of a selection of compounds
Kindly provide the number alone.

Query string: Item under review: CO[C@H]1COC(=O)CCC[C@H](C)[C@@H](OC)COC(=O)CC=C[C@@H]1C . Reported z-score?
Result string: -0.866

Query string: Here is the next compound: CCOC(=O)[C@H](CC(C)C)NC(=O)CCC1CC(OC(=O)NCCc2ccc(F)cc2)CC2(CCCC(COC(=O)NCc3cccc4ccccc34)O2)O1 (stereo not given in full)
Result string: -1.56

Query string: // query: O=C(NN=C1C[C@@H](O)[C@@H](O)[C@@H]2[C@@H]3C(=O)N(c4ccc(F)cc4F)C(=O)[C@@H]3CC[C@H]12)OCc1ccccc1
Result string: -0.741

Query string: And what about the compound COc1ccc(COC(=O)NN=C2C[C@@H](O)[C@@H](O)[C@@H]3[C@@H]4C(=O)N([C@@H](C)c5ccccc5)C(=O)[C@@H]4CC[C@H]23)cc1 ?
Result string: 0.493

Query string: Moving on to the next compound: O=C1[C@H]2[C@H]3[C@H](O)[C@H](O)CC(=NO[C@@H]4O[C@H](CO)[C@@H](O)[C@H](O)[C@H]4O)[C@H]3CC[C@H]2C(=O)N1c1ccc(F)cc1F
Result string: -0.709

Continuing:
Query string: Please look up its z-score: CCOC(=O)[C@H](CC(C)C)NC(=O)CCC1CC(OC(=O)NCCc2ccc(F)cc2)CC2(CCCC(COC(=O)NCCCN3CCCC3=O)O2)O1 (stereo not given in full)
Result string: 0.131

Query string: Here is the next compound: C[C@H]1CC[C@@H](C(=O)O)N[C@@H]1c1ccc(C#Cc2ccccc2)cc1
Result string: -1.59

Query string: Could you do the same for CC(C)CON=C1C[C@@H](O)[C@@H](O)[C@@H]2[C@@H]3C(=O)N([C@@H](C)c4ccccc4)C(=O)[C@@H]3CC[C@@H]12 , please?
Result string: -0.389

Query string: Try the compound COC(=O)[C@H](C)NC(=O)CCC1CC(OC(=O)NCCc2ccc(F)cc2)CC2(CCCC(COC(=O)NCC3CCCCC3)O2)O1 (stereo not given in full)
Result string: -0.771

Query string: What do you have for CON=C(C)CCN1CCCc2nc(C)c(C)cc21 ?
Result string: 0.11

Query string: Try O=C1[C@H]2[C@H]3[C@H](O)[C@H](O)CC(=NOCc4ccccc4)[C@H]3CC[C@H]2C(=O)N1C1CCCCC1 next.
Result string: -0.847

Query string: Repeat with CCCNC(=O)OC[C@H]1O[C@H](CCON=C[C@@H](C)[C@H](OCc2ccccc2)C(C)C)C=C[C@@H]1Oc1ccc(OC)cc1
Result string: -0.627

Query string: # iterate: COC(=O)[C@H](C)NC(=O)CCC1CC(OC(=O)NCc2cccc3ccccc23)CC2(CCCC(COC(=O)NCCOc3ccccc3)O2)O1 (stereo not given in full)
Result string: -0.463

Query string: Repeat with C[C@@H]1CC[C@H]2C(=O)OC(Cc3ccccc3)CN2[C@H]1c1ccc(Br)cc1 (stereo not given in full)
Result string: -0.332

---

# ASSAY_SYSTEM: Pro-neuregulin-1, membrane-bound isoform (Homo sapiens)
# EXPERIMENT_DESCRIPTION: NRG1 binders on small-molecule microarrays, primary screen, psychiatric disease protein project, biochemical, small-molecule microarray, fluorescence 635/667 (AID 1075);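 also: score combines 667 nm spot fluorescence with signal to noise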
# TEST_PARAMETERS: NRG1 binding, 635 nm fluorescence, higher = more signal
Criterion: composite z-score meeting or surpassing 0.2. Met: y. Not met: n.

Record excerpt, results attached:
Query string: composite z-score >= 0.2 for CCOC(=O)[C@H](Cc1ccccc1)NC(=O)CCC1CC(OC(=O)NCCc2ccc(F)cc2)CC2(CCCC(COC(=O)NCCOc3ccccc3)O2)O1 (stereo partly specified) ?
Result string: y

Query string: How about COc1ccc(COC(=O)NN=C2C[C@@H](O)[C@@H](O)[C@@H]3[C@@H]4C(=O)N(C[C@@H]5CCCO5)C(=O)[C@@H]4CC[C@H]23)cc1 ?
Result string: n

Query string: Next molecule: CO[C@@H](C1CCCCC1)[C@@H](C)[C@H](OCc1cccc(Br)c1)[C@@H](C)CO
Result string: n

***
Query string: Quick check: does COC(=O)[C@H](C)NC(=O)CCC1CC(OC(=O)NCc2cccc3ccccc23)CC2(CCCC(COC(=O)NCc3cccc(C(F)(F)F)c3)O2)O1 (stereo partly specified) have composite z-score greater than or equal to 0.2?
Result string: y

Query string: Then this molecule: CCOC(=O)[C@H](Cc1ccccc1)NC(=O)CCC1CC(OC(=O)NCc2cccc3ccccc23)CC2(CCCC(COC(=O)NCc3ccc4c(c3)OCO4)O2)O1 (stereo partly specified)
Result string: n

Query string: Next entry: Cc1ccc(S(=O)(=O)N[C@@H]2COC(=O)CC=C[C@@H](C)[C@H](NS(=O)(=O)c3ccc(C)cc3)COC(=O)[C@H](C)NC(=O)CC=C[C@H]2C)cc1
Result string: n

---

In this section, each of the compounds is paired with its reported composite Z-score.
# EXPERIMENT_DESCRIPTION: small-molecule microarray binders of probe aXIP, primary screen, biochemical, NeuroSMM set, 635/667 nm fluorescence (AID 1119);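 also: probe is the protein aXip251-270 applied at 1 µg/mL to compound-printed slides; binding of probe to printed compounds measured as 667 nm fluorescence plus signal to noise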
# TEST_PARAMETERS: higher = more signal, called active from +8 up or from −8 down
The source made the active and inactive calls.

Query string: Fill in: composite Z-score of CCc1cc2c(nc1CC)CCN(CCC(C)=NOCC[C@@H]1C=C[C@H](OC(C)=O)[C@@H](COC(C)=O)O1)C2 is ___
Result string: 0.497 (inactive)

Query string: Again, but for O=C1[C@H]2[C@H]3[C@H](O)[C@H](O)CC(=NO[C@@H]4O[C@H](CO)[C@@H](O)[C@H](O)[C@H]4O)[C@@H]3CC[C@H]2C(=O)N1c1cccc(Oc2ccccc2)c1
Result string: -0.65 (inactive)

Query string: Next compound: COC(=O)[C@H](C)NC(=O)CCC1CC(OC(=O)NCCc2ccc(F)cc2)CC2(CCCC(COC(=O)NCC3CCCCC3)O2)O1 (stereo not given in full)
Result string: 0.697 (inactive)

Query string: Now the compound CCOC(=O)[C@H](CC(C)C)NC(=O)CCC1CC(OC(=O)NCCc2ccc(F)cc2)CC2(CCCC(COC(=O)NCCCN3CCCC3=O)O2)O1 (stereo not given in full)
Result string: 0.0886 (inactive)

Query string: And the next one, O=C1[C@H]2[C@H]3[C@H](O)[C@H](O)CC(=NOC[C@@H](O)COCc4ccco4)[C@@H]3CC[C@H]2C(=O)N1C1CCCCC1 ?
Result string: -0.415 (inactive)

Query string: And the next one, COc1ccc(COC(=O)NN=C2C[C@@H](O)[C@@H](O)[C@@H]3[C@@H]4C(=O)N(C[C@@H]5CCCO5)C(=O)[C@@H]4CC[C@@H]23)cc1 ?
Result string: 0.58 (inactive)

Query string: CCCNC(=O)OC[C@H]1O[C@H](CCON=C[C@@H](NS(=O)(=O)c2ccc(C)cc2)[C@H](C)C=CCC(=O)OC)C=C[C@@H]1Oc1ccc(OC)cc1 ?
Result string: -0.385 (inactive)

Query string: Follow-up entry: CC(C)=NOC(C)CN1CCCCc2nc(C)c(C)cc21 (stereo not given)
Result string: 0.761 (inactive)

Query string: Same again, this time with COC(=O)[C@@H]1CC[C@H](C)[C@@H](c2ccc(Br)cc2)N1
Result string: 1.22 (inactive)

Query string: What about COC(=O)[C@H](Cc1ccccc1)NC(=O)[C@@H](C)CO ?
Result string: 0.047 (inactive)

Others:
Query string: Sample CCN1C(=O)[C@H]2[C@H]3[C@H](O)[C@H](O)CC(=NOC[C@@H](O)COCc4ccco4)[C@H]3CC[C@H]2C1=O — what was its composite Z-score?
Result string: 0.525 (inactive)

Query string: Can you check CCN1C(=O)[C@H]2[C@H]3[C@H](O)[C@H](O)CC(=NOC[C@@H](O)[C@H]4O[C@@H]5OC(C)(C)O[C@@H]5[C@H]4O)[C@@H]3CC[C@H]2C1=O next?
Result string: -0.485 (inactive)

Query string: # repeat for CCOC(=O)NN=C1C[C@@H](O)[C@@H](O)[C@@H]2[C@@H]3C(=O)N(C[C@@H]4CCCO4)C(=O)[C@@H]3CC[C@H]12
Result string: -0.161 (inactive)

Query string: Okay, and C=CC[C@@H]1C=C[C@H](ON=C2C[C@@H](O)[C@@H](O)[C@@H]3[C@@H]4C(=O)N(CC)C(=O)[C@@H]4CC[C@@H]23)[C@@H](CO)O1 ?
Result string: -0.116 (inactive)

Query string: Field entry: CC(=O)OC[C@H]1O[C@H](C#CCC2CCCCC2)C=C[C@@H]1OC(C)=O
Result string: -0.106 (inactive)
